tested on: Human immunodeficiency virus 1; assay: Antiviral activity against […] HIV1 A17 harboring reverse transcriptase K103N and Y181C mutant infected in human C8166 cells assessed as inhibition of viral-induced cytopathogenicity after 3 days by syncytium formation assay; type: functional, organism-based; details: Human immunodeficiency virus 1, A17, C8166, 72 h
measure: EC50 (µM)
Your answer should be a plain number; it is taken to be in µM.

Answered examples (5):
molecule | unit text | EC50
Cc1cc(S(N)(=O)=O)ccc1NC(=O)COc1ccc(Cl)cc1C(O)c1cccc([N+](=O)[O-])c1 (racemic) | µM | 4.34
Cc1ccc(C(O)c2cc(Cl)ccc2OCC(=O)Nc2ccc(S(N)(=O)=O)cc2C)c(C)c1 (racemic) | µM | 40.4
Cc1cc(S(N)(=O)=O)ccc1NC(=O)COc1ccc(Cl)cc1C(O)c1ccc(Cl)c(Cl)c1 (racemic) | µM | 31.6
Cc1cc(C)cc(C(O)c2cc(Cl)ccc2OCC(=O)Nc2ccc(S(N)(=O)=O)cc2C)c1 (racemic) | µM | 2.08
Cc1cc(S(N)(=O)=O)ccc1NC(=O)COc1ccc(Cl)cc1C(O)c1cc(Cl)ccc1Cl (racemic) | µM | 9.58

Consider Cc1cc(S(N)(=O)=O)ccc1NC(=O)COc1ccc(Cl)cc1C(O)c1ccccc1C (racemic) . Its measured EC50 is 20.8

Consider Cc1cc(S(N)(=O)=O)ccc1NC(=O)COc1ccc(Cl)cc1C(O)c1cccc(F)c1 (racemic) . Its measured EC50 is 6.61

Consider Cc1cc(S(N)(=O)=O)ccc1NC(=O)COc1ccc(Cl)cc1C(O)c1ccc2ccccc2c1 (racemic) . Its measured EC50 is 10.7

Consider Cc1cc(S(N)(=O)=O)ccc1NC(=O)COc1ccc(Cl)cc1C(O)c1cccc(Cl)c1 (racemic) . Its measured EC50 is 13

Consider Cc1cc(S(N)(=O)=O)ccc1NC(=O)COc1ccc(Cl)cc1C(O)c1ccccc1Cl (racemic) . Its measured EC50 is 20.4

Consider Cc1cc(S(N)(=O)=O)ccc1NC(=O)COc1ccc(Cl)cc1C(O)c1ccccc1 (racemic) . Its measured EC50 is 16.5

Consider Cc1cn([C@H]2C[C@H](N=[N+]=[N-])[C@@H](CO)O2)c(=O)[nH]c1=O . Its measured EC50 is 0.023

Consider Cc1cc(S(N)(=O)=O)ccc1NC(=O)COc1ccc(Cl)cc1C(O)c1cccc2ccccc12 (racemic) . Its measured EC50 is 8.47

Consider Cc1cc(S(N)(=O)=O)ccc1NC(=O)COc1ccc(Cl)cc1C(O)c1cc(Cl)cc(Cl)c1 (racemic) . Its measured EC50 is 9.45

Taken from ChEMBL document CHEMBL1811789.
